test: Pharmacokinetic study in serum and brain; type: in vivo, mice; conditions: male, CD-1, mouse, ip; brain, i.p. 25 mg/kg, mice

Compound	MRT, min
CC(=O)NC(C)C(=O)N1CCN(c2cccc(OC(F)(F)F)c2)CC1 (stereo not shown)	23.6

---

test: Metabolic stability in human liver microsomes; type: in vitro ADME; conditions: human, human liver microsomes; HLMs, 120 min; read-out: metabolic stability (% remaining after the reaction with HLMs)

Molecule	remaining at 2 h [%]
CC(=O)NC(C)C(=O)N1CCN(c2cccc(C(F)(F)F)c2)CC1 (stereo not shown)	93.5

---

tested on: mice; assay: 6 Hz (32 mA) psychomotor seizure model; type: in vivo; settings: Mus musculus, ip; mice, pretreatment 0.5 h
Each item that follows carries a reported ED50.
Experimental Endpoint: ED50

Compound	Experimental Endpoint	Measured Result
CC(=O)NC(C)C(=O)N1CCN(c2cccc(C(F)(F)F)c2)CC1 (stereo not shown)	ED50	15.6 mg/kg
CC(=O)NC(C)C(=O)N1CCN(c2cccc(Oc3ccccc3)c2)CC1 (stereo not shown)	ED50	41.2 mg/kg
CC(=O)NC(C)C(=O)N1CCN(c2cc(Cl)cc(Cl)c2)CC1 (stereo not shown)	ED50	56.1 mg/kg
CC(=O)NC(C)C(=O)N1CCN(c2cccc(OC(F)(F)F)c2)CC1 (stereo not shown)	ED50	12.1 mg/kg
CC(=O)NC(C)C(=O)N1CCN(c2cccc(Cl)c2)CC1 (stereo not shown)	ED50	77.3 mg/kg
CC(=O)NC(C)C(=O)N1CCN(c2ccc(Cl)c(Cl)c2)CC1 (stereo not shown)	ED50	41.4 mg/kg
CC(=O)NC(C)C(=O)N1CCN(c2cccc(SC(F)(F)F)c2)CC1 (stereo not shown)	ED50	39.1 mg/kg

---

experiment: Pharmacokinetic study in serum and brain; assay type: in vivo, mice; conditions: male, CD-1, mouse, po; serum, p.o. 25 mg/kg, mice

Molecule	Unit Of Measure	MRT
CC(=O)NC(C)C(=O)N1CCN(c2cccc(OC(F)(F)F)c2)CC1 (stereo not shown)	h	1.68

---

experiment: Pharmacokinetic study in serum and brain; assay type: in vivo, mice; conditions: male, CD-1, mouse, ip; brain, i.p. 25 mg/kg, mice; read-out: tmax (converted)

Compound	Tmax (min)
CC(=O)NC(C)C(=O)N1CCN(c2cccc(OC(F)(F)F)c2)CC1 (stereo not shown)	5

---

assay: Pharmacokinetic study in serum and brain; assay type: in vivo, mice; settings: male, CD-1, mouse, ip; brain, i.p. 25 mg/kg, mice; read-out: λz (converted)
Experimental Endpoint: k el (s⁻¹)

Compound	Measured Result
CC(=O)NC(C)C(=O)N1CCN(c2cccc(OC(F)(F)F)c2)CC1 (stereo not shown)	0.0001

---

Assay: HepG2 cell viability (hepatotoxicity)
Type: cell-based, human
Conditions: human, HepG2 hepatoma cells; at 1.56 μM, 48 h; read-out: HepG2 viability (% of control ± SD)
Procedure: The in vitro safety tests were performed with the use of a hepatoma HepG2 cell line to estimate the hepatotoxic potential of the tested compounds.
Experimental Endpoint: viability at 48 h, 1.56 µM (%)

Compound	Unit Of Measure	Measured Result
CC(=O)NC(C)C(=O)N1CCN(c2cccc(C(F)(F)F)c2)CC1 (centres unmarked)	%	104
CC(=O)NC(C)C(=O)N1CCN(c2cccc(OC(F)(F)F)c2)CC1 (centres unmarked)	%	88.2

Origin of the recorded values: paper PMC11157491
